Molecular target: ALDH3A1 (Homo sapiens, UniProt P30838)
Construct: purchased R&D systems
Sequence (P30838 whole entry): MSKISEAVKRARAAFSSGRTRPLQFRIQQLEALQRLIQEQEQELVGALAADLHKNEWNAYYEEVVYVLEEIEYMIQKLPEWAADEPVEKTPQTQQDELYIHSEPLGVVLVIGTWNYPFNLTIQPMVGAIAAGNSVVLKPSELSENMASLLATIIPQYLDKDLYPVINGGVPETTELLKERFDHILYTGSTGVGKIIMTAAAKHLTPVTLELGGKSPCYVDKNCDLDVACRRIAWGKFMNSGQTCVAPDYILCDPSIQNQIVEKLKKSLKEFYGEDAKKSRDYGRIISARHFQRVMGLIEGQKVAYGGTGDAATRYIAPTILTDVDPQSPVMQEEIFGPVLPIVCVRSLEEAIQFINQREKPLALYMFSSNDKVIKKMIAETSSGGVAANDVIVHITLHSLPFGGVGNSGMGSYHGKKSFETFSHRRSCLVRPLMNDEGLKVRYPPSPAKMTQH
Test: ALDH isoform-specific enzyme inhibition assay, ALDH3A1
Format: biochemical
Details: 500 nM, Acetaldehyde (Substrate)
Could you label it TRUE if measured inhibition at 0.5 µM is 30% or higher, and FALSE otherwise?

>>> assigned_category("Br.N=C(N)SCc1ccc(Cn2nc(Br)c3cc(C(F)(F)F)ccc32)cc1")
"FALSE"
>>> assigned_category("Br.N=C(N)SCc1ccc(Cn2nc(Br)c3cccc(C(F)(F)F)c32)cc1")
"FALSE"
>>> assigned_category("O=C(OCc1ccc(CN2C(=O)C(=O)c3cc(Br)cc(Br)c32)cc1)c1ccco1")
"FALSE"
>>> assigned_category("O=C(OCc1ccc(CN2C(=O)C(=O)c3cc(Br)cc(Br)c32)cc1)c1ccc([N+](=O)[O-])o1")
"TRUE"
>>> assigned_category("O=Cc1ccc(CN2C(=O)C(=O)c3cc(Br)cc(Br)c32)cc1")
"TRUE"

* * *

System: MiaPaCa-2
Assay: Cell viability assay (MTS), MiaPaCa-2
Assay type: cell-based, human
Conditions: Homo sapiens, MIA PaCa-2, pancreatic cancer cells, 48 h, mean ± SD
Listed here are compounds together with their documented IC50.
endpoint.name: IC50 (µM)

>>> measured("COC(=O)/C=C/c1ccc(CN2C(=O)C(=O)c3cc(Br)cc(Br)c32)cc1 [Compound 2]")
22.3
>>> measured("Br.C=CCNC(=N)SCc1ccc(Cn2ncc3cc(C(F)(F)F)ccc32)cc1 [Compound 10]")
48.4

* * *

System: SKOV-3, MiaPaCa-2, HCT-116, HEK-293, and FHC cell lines
Assay: Cell viability assay (MTS), statements over the cell line panel
Type: cell-based, human
Settings: Homo sapiens, Pancreatic cancer cell; ovarian, colon, and pancreatic cancer cells, 48 h MTS; read-out: IC50 in cancer cell lines
pIC50: −log10 of the molar value.
Listed here are molecules together with their documented pIC50.
endpoint.name: pIC50

>>> measured("O=Cc1ccc(Cn2nc(Br)c3cc(C(F)(F)F)ccc32)cc1")
"< 4.30"
>>> measured("COC(=O)/C=C/c1ccc(Cn2ncc3cc(C(F)(F)F)ccc32)cc1")
"< 4.30"
>>> measured("COC(=O)/C=C/c1ccc(Cn2cc3cc(C(F)(F)F)ccc3n2)cc1")
"< 4.30"
>>> measured("O=C(OCc1ccc(CN2C(=O)C(=O)c3cc(Br)cc(Br)c32)cc1)c1ccc([N+](=O)[O-])o1")
"5.42 to 5.68"
>>> measured("OCc1ccc(Cn2nc(Br)c3cc(C(F)(F)F)ccc32)cc1")
"< 4.30"

* * *

Test system: HEK-293
Experiment: Cell viability assay (MTS), HEK-293
Format: cell-based
Conditions: HEK293, human embryonic kidney cells, 48 h, mean ± SD
Experimental: Five thousand cells/well were plated in 96-well plates in growth media and left for attachment for 24 h. The cells were then treated with the respective compounds using varying concentrations for 48 h. […] Then, 15 μL of MTS reagent was added to each well, and the absorbance was assessed at 490 nm with a microplate reader (Dynex Technologies, MRX Revelation; Chantilly, VA, USA) after 1 h incubation with MTS. […]
endpoint.name: IC50 (µM)

>>> measured("Br.N=C(N)SCc1ccc(Cn2cc3cc(C(F)(F)F)ccc3n2)cc1")
18.9
>>> measured("O=C(OCc1ccc(CN2C(=O)C(=O)c3cc(Br)cc(Br)c32)cc1)c1ccc([N+](=O)[O-])o1")
8.7
>>> measured("Br.C=CCNC(=N)SCc1ccc(CN2C(=O)C(=O)c3cc(C(F)(F)F)ccc32)cc1")
9.7
>>> measured("Br.N=C(N)SCc1ccc(Cn2ncc3cccc(C(F)(F)F)c32)cc1")
17.7
>>> measured("COC(=O)/C=C/c1ccc(CN2C(=O)C(=O)c3cc(Br)cc(Br)c32)cc1")
24.1
>>> measured("O=C(OCc1ccc(CN2C(=O)C(=O)c3cc(Br)cc(Br)c32)cc1)c1ccco1")
5.3
>>> measured("Br.N=C(N)SCc1ccc(Cn2nc(Br)c3cc(C(F)(F)F)ccc32)cc1")
5.7
>>> measured("Br.C=CCNC(=N)SCc1ccc(CN2C(=O)C(=O)c3cc(Br)cc(Br)c32)cc1")
4.1
>>> measured("O=Cc1ccc(CN2C(=O)C(=O)c3cc(Br)cc(Br)c32)cc1")
7.5

All values here come from paper PMC11243058.
